Target System: T1, FX activation peptide 12-mer TSSSGEAPDSIT (human)
T1 peptide: TSSSGEAPDSIT-biotin
Test Protocol: peptide ELISA
Ends that are not written are not given here.
As shown below, each of these binders has a reported ELISA signal relative to background value.
Write the number on its own, no unit after it.

Examples with their reported ELISA signal relative to background follow.
* Nb 702C12 (VHH, monovalent Nanobody; not shown: C-terminal FLAG3 and HIS6 tag) VHH: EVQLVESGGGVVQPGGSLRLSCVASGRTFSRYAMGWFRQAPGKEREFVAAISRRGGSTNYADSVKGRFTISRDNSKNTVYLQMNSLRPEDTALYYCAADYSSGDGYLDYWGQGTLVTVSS | 0.77
* Nb 729C08 (VHH, monovalent Nanobody; also called Nb 729008; not shown: C-terminal FLAG3 and HIS6 tag) VHH: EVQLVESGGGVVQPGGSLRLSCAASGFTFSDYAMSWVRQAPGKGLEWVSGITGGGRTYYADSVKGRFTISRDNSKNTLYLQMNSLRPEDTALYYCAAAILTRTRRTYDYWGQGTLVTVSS | 1.06
* Nb 501A02 (VHH, monovalent control Nanobody; also called control Nanobody; not shown: C-terminal FLAG3 and HIS6 tag) VHH: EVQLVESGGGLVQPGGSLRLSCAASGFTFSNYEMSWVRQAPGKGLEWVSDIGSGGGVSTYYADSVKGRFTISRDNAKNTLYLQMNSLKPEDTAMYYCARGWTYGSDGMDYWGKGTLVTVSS | 0.76
* Nb 729A04 (VHH, monovalent Nanobody; not shown: C-terminal FLAG3 and HIS6 tag) VHH: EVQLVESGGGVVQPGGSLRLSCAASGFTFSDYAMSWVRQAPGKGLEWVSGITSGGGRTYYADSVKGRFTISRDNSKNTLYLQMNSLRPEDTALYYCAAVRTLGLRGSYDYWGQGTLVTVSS | 1.12

(Q) Please look up its ELISA signal relative to background: Nb 701B09 (VHH, monovalent Nanobody; also called Nb 701609; not shown: C-terminal FLAG3 and HIS6 tag) VHH: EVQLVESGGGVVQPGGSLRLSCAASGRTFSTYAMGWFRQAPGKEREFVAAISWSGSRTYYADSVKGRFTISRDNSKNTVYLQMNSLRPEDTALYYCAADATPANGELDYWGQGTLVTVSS
(A) 0.97

Data provenance is patent US20210054097A1.
